Biological target: T1, extracellular domain of activin receptor type IIB (ActRIIBecd), biotinylated (Homo sapiens (Human), UniProt Q13705 27-117, amino-biotinylated with amine-PEG3-Biotin)
T1 construct: immobilised on a streptavidin-coated sensor chip; also called biotinylated ActRIIBecd; extracellular domain of ActRIIB
T1 sequence: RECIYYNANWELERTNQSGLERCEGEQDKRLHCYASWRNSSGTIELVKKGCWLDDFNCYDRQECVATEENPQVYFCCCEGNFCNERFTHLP
Assay: BIAcore SPR as Example 5 (method not restated); SD ±3.30 nM
Bridges are numbered along the chain shown (N, C = ends).
metric: pKd
To interpret pKd, take it as minus log10 of a concentration measured in moles per litre.

Problem: Fill in pKd for record SEQ ID NO: 236, cysteine pairs C41-C59^a (designed binder, disulfide 41-59) NSKDPKACCVPTELSAPSPLYLDENEKPVLKNYQDMVVHGCGCRGQAKRKGYKRLKSSCKRHPLY
Solution: 7.31
